Where do these numbers come from? They come from ChEMBL document CHEMBL1129857.

- System: Metabotropic glutamate receptor 2 (Rattus norvegicus, UniProt P31421)
- Sequence (P31421 whole entry): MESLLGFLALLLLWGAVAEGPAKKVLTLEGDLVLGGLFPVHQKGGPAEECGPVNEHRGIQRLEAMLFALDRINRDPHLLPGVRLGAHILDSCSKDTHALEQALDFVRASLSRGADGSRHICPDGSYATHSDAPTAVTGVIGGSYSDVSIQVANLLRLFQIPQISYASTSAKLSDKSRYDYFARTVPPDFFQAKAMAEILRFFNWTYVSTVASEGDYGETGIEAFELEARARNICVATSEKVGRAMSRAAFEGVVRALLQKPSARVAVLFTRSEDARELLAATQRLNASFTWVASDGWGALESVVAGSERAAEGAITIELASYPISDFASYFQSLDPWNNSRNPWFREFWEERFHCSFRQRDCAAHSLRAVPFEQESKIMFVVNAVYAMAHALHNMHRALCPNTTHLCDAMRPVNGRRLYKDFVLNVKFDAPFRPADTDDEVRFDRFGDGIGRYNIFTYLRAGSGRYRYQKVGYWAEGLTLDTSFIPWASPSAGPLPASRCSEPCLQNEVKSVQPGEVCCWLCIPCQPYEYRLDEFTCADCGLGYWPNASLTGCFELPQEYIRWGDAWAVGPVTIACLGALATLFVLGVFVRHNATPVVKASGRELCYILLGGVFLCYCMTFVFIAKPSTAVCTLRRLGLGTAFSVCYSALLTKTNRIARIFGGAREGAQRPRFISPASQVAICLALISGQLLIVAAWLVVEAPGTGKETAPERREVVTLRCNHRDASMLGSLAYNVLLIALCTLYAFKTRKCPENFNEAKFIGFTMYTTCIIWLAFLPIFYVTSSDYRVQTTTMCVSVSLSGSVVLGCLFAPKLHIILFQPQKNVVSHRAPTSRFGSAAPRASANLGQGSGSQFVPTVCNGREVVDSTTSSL
- Test name: Tested for the agonistic activity against Metabotropic glutamate receptor 2
- Assay type: functional
Measured attribute: EC50 (nM)
The reply should be a number in nM, with the unit left off.

query: Please give the documented EC50 of N[C@@]1(C(=O)O)CN[C@@H](C(=O)O)C1
result: 300

* * *

- System: Metabotropic glutamate receptor 5 (Rattus norvegicus)
- Sequence (P31424 whole entry): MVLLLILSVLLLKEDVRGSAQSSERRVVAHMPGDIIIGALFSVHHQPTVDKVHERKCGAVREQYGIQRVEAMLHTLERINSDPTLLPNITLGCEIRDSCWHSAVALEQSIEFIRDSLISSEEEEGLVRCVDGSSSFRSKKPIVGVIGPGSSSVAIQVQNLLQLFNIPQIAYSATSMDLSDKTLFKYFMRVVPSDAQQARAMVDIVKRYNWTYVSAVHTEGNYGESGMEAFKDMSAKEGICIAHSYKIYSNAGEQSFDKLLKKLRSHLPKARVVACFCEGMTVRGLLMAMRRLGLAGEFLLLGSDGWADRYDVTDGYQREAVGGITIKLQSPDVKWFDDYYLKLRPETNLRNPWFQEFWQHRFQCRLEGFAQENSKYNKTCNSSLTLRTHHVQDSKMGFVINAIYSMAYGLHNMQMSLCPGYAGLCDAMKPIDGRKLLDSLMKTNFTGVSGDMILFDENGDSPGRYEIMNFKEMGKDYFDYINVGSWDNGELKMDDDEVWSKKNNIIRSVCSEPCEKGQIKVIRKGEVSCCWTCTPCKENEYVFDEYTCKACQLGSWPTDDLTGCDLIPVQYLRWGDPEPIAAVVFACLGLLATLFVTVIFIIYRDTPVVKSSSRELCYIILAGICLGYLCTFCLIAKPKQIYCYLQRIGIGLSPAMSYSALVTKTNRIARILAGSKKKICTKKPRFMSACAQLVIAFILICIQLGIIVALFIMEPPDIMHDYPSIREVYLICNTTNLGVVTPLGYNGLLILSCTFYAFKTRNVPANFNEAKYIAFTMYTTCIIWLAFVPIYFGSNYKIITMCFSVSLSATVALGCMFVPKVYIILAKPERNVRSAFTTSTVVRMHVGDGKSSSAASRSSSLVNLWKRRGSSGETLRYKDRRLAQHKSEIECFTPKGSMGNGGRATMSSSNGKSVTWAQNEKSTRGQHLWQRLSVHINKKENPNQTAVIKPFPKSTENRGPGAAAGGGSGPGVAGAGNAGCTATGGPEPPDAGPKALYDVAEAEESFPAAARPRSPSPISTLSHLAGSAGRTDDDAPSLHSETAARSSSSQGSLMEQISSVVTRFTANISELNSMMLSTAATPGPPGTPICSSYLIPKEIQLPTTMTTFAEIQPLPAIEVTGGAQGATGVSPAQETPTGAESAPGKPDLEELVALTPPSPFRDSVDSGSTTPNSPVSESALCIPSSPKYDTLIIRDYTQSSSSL
- Test name: Tested for the agonistic activity against Metabotropic glutamate receptor 5
Measured attribute: pIC50
Lab note — pIC50 values are minus log10 of concentrations in M.

query: Please give the documented pIC50 of N[C@]1(C(=O)O)C[C@H](C(=O)O)N(Cc2ccccc2)C1
result: 3.22
